- system_tested: SARS-CoV-2 Spike on pseudotyped virus (PsV) (SARS-CoV-2, UniProt P0DTC2 14-1273)
- method_description: cell-based or functional assay
Record form. Attribute: Median IC50, SARS-CoV-2 PsV neutralization. Fill in for each entry.

Data request: Form field: reported Median IC50, SARS-CoV-2 PsV neutralization of mAb 82 (antibody, V domains shown) VH: QVQLVQSGAEVKKPGASVKVSCKASGGSFSTSAFYWVRQAPGQGLEWMGWINPYTGGTNYAQKFQGRVTMTRDTSTSTVYMELSSLRSEDTAVYYCARSRALYGSGSYFDYWGQGTLVTVSS VL: DIQMTQSPSSLSASVGDRVTITCRASQVISNYLAWYQQKPGKAPKLLIYDASNLETGVPSRFSGSGSGTDFTLTISSLQPEDFATYYCQQSFSPPPTFGQGTRLEIKR
Data returned: 1.6 µg/mL

Data request: Form field: reported Median IC50, SARS-CoV-2 PsV neutralization of mAb 120 (antibody, V domains shown) VH: QVQLVQSGAEVKKPGASVKVSCKASGYTFTSYDINWVRQAPGQGLEWMGMIDPSGGSTSYAQKFQGRVTMTRDTSTSTVYMELSSLRSEDTAVYYCAKDFGGGTRYDYWYFDLWGRGTLVTVSS VL: EIVMTQSPATLSVSPGERATLSCRASQSVSSRYLAWYQQKPGQAPRLLIYGASTRATGIPARFSGSGSGTEFTLTISSLQSEDFAVYYCQQYYTTPRTFGQGTRLEIKR
Data returned: > 50 µg/mL

Data request: Form field: reported Median IC50, SARS-CoV-2 PsV neutralization of mAb 108 (antibody, V domains shown) VH: QVQLVQSGAEVKKPGASVKVSCKASGYIFSRYAIHWVRQAPGQGLEWMGWMNPISGNTDYAPNFQGRVTMTRDTSTSTVYMELSSLRSEDTAVYYCAKDGSQLAYLVEYFQHWGQGTLVTVSS VL: DIQMTQSPSSLSASVGDRVTITCRASQVITNNLAWYQQKPGKAPKLLIYDASTLETGVPSRFSGSGSGTDFTLTISSLQPEDFATYYCQQSYTFPYTFGQGTKVEIKR
Data returned: > 50 µg/mL

Data request: Form field: reported Median IC50, SARS-CoV-2 PsV neutralization of mAb 64 (antibody, V domains shown) VH: EVQLLESGGGLVQPGGSLRLSCAASGFPFSQHGMHWVRQAPGKGLEWVSAIDRSGSYIYYADSVKGRFTISRDNSKNTLYLQMNSLRAEDTAVYYCARDTYGGKVTYFDYWGQGTLVTVSS VL: DIQMTQSPSSLSASVGDRVTITCRASQGISSHLAWYQQKPGKAPKLLIYDASNLETGVPSRFSGSGSGTDFTLTISSLQPEDFATYYCQQTYSTPWTFGQGTKVEIKR
Data returned: > 50 µg/mL

Data request: Form field: reported Median IC50, SARS-CoV-2 PsV neutralization of mAb 180 (antibody, V domains shown) VH: QVQLVQSGAEVKKPGSSVKVSCKASGYTFTSYAMHWVRQAPGQGLEWMGRISPRSGGTKYAQRFQGRVTITADESTSTAYMELSSLRSEDTAVYYCAREAVAGTHPQAGDFDLWGRGTLVTVSS VL: DIVMTQSPLSLPVTPGEPASISCRSSQSLLHSNGYNYLDWYLQKPGQSPQLLIYAASSLQSGVPDRFSGSGSGTDFTLKISRVEAEDVGVYYCQQYYSSPYTFGQGTKLEIKR
Data returned: > 50 µg/mL
